Test: yeast display, Sf9 membrane polyspecificity reagent, FACS + sequencing; frameworks hold sequencing errors
Measured attribute: polyreactivity (PSR sort gate)

{"Sequence code": "QVQLVESGGGLVQAGGSLRVSCAASGFTFRHNAMGWYRQAPGKERELVAVISSTGTYADSVKGRFTISRDNAKNTVYLQMNSLKPEDTAVYYCAAGSDYGGSYAYDYWGQGTQVTVSS", "Test value": "low polyreactivity"}
{"Sequence code": "QVQLVESGGGLVQAGGSLRLSCAASGNNFSAYAMGWYRQAPGKERELVATITSGGRTYYADSVKGRFTISRDNAKNTVYLQMNSLKPEDTAVYYCAADGPYYSPYYYWGQGTQVTVSS", "Test value": "low polyreactivity"}
{"Sequence code": "QVQLLESGGGLVQAGGSLRLSCAASGRTFRYYAMGWYRQAPGKERELVAAITANGGSTYYADSVKGRFTISRDNAKNTVYLQMNSLKPEDTAVYYCAAKYNTKLYYWGQGTQVTVSS", "Test value": "high polyreactivity"}
{"Sequence code": "QVQLVESGGGLVQAGGSLRLSCAASGSIFGLYAMGWYRQAPGKEREFVASITYSGGSTYYADSVKGRFTISRDNAKNTVYLQMNSLKPEDTAVYYCAAESYWGYDYWGQGTQVTVSS", "Test value": "high polyreactivity"}
{"Sequence code": "QVQLVESGGGLVQAGGSLRLSCAASGSTFKWNAMGWYRQAPGKERELVAAISKGSVNTYYADSVKGRFTISRDNAKNTVYLQMNSLKPEDTAVYYCAADRRYPALDYWGQGTQVTVSS", "Test value": "high polyreactivity"}

====

Test: yeast display, Sf9 membrane polyspecificity reagent, FACS + sequencing; frameworks hold sequencing errors
Measured attribute: polyreactivity (PSR sort gate)

{"Sequence code": "QVQLVESGVGLVQAGGSLRVSCAASGLTFAYYDMGWYRQAPGKERELVAAITWNGGSTYYADSVKGRFTISRDNAKNTVYLQMNSLKPEDTAVYYCAASWGYGYSGRFDYWGQGTQVSVSS", "Measured attribute": "polyreactivity (PSR sort gate)", "Test value": "high polyreactivity"}
{"Sequence code": "QVQLVESGGGLVQAGGSLRLSCAASGFIFITVNAMGWYRQAPGKEREFVAAITRSGTGTYYADSVKGRFTISRDYAKYTVFLQMNSLKPEDTAVSYCAADATSTGAYDYWGQGTQVTVSS", "Measured attribute": "polyreactivity (PSR sort gate)", "Test value": "low polyreactivity"}
{"Sequence code": "QVQLVESGGGLVQAGGSLRLSCAASGRIFAVYVMGWYRQAPGKERELVAAISQSGGRTYYADSVKGRFTISRDNAKNTVYLQMNSLKPEDTAVYYCNTVTSRATNFSGFGYWGQGTQVTVSS", "Measured attribute": "polyreactivity (PSR sort gate)", "Test value": "high polyreactivity"}
{"Sequence code": "QVQHVESGGGLVQAGGSLRLSCAASGFIFASYTMGWYRQAPGKERELVATISRGGSTYYADSVKGRFTISRDNAKNTVYLQMNSLKPEATAVYYCATDVGKRAGYYGGVYPDFDYWGQGTQVTVSS", "Measured attribute": "polyreactivity (PSR sort gate)", "Test value": "low polyreactivity"}
{"Sequence code": "QVQLVESGGGLVQAGGSLRLSCAASGNTLYQYAMGWYRQAPGKERELVASITWSGSSTYYADSVKGRFTISRDNAKNTDDLQMNSLKPEDPAVYYCAAVVYYTFDYCGQGTQVTVSS", "Measured attribute": "polyreactivity (PSR sort gate)", "Test value": "low polyreactivity"}

====

Test: yeast display, Sf9 membrane polyspecificity reagent, FACS + sequencing; frameworks hold sequencing errors

{"Sequence code": "QVQLVESGGGLVQAGGSLRLSCAASGIIFTYYAMGWYRQAPGKERELVAAISYRGGSTYYADSVKGRFTISRDNAKNTVYLQMNSLKPEDTAVYYCNARYFRHYDYWGQGTQVTVSS", "polyreactivity (PSR sort gate)": "high polyreactivity"}
{"Sequence code": "QVQLVESGGGLVQAGGSLRLSCAASGRIFGNYAMGWYRQAPGKERELVAAISGGGSTYYADSVKGRFTISRDNAKNTVYLQMNSLKPEDTAVYYCNAKTYYPPFGYWGQGTQVTVSS", "polyreactivity (PSR sort gate)": "low polyreactivity"}
{"Sequence code": "QVQLLESGGGLVQAGGSLRLSCAASGSTIVSYDMGWYRQAPGKERELVAAITYDGDSTYYADSVKGRFTISRDNAKNTVYLQMNSLKPEDTAVYYCAAEPGEDLKFRGGFEYWGQGTQVTVSS", "polyreactivity (PSR sort gate)": "low polyreactivity"}
{"Sequence code": "QVQLVESGGGLVQAGGSLRLSCAASGFTFTYYVMGWYRQAPGKVRELVAAITRGGITDYADSVKGRFTISRDNAKNTVDLQMNSLKPEETAVYYCAAYYSYVLDYDYWGQGTQVTVSS", "polyreactivity (PSR sort gate)": "low polyreactivity"}
{"Sequence code": "QVQLVESGGGLVQAGGSLRLSCAASGSIFSRNAMGWYRQAPGKVRELVAAITGSGSSTYYADSVKGRFTISRDNAKNTVYLQMNSLKPEDTAVYYCAKGSWWGYYSYGFDYWGQGTQVTVSS", "polyreactivity (PSR sort gate)": "high polyreactivity"}
{"Sequence code": "QVQLVESGGGLVQAGGSLRLSCAASGRTFHSYAMGWYRQAPGKERELVAVITRRGGSTYYADSVKGRFTISRDNAKNTVYLQMNSLKPEDTAVYYCNKGKSYTYDYWGQGTQVTVTS", "polyreactivity (PSR sort gate)": "high polyreactivity"}
{"Sequence code": "QVQLVESGGGLVQAGGSLRLSCAASGRTIYQYAMGWYRQAPGKERELVAAITDNGGRTYYADSVKGRFTISCDNAKNTVYLQMNSLKPEDTAVYYCAAEIWTYSYYVVDNGPYDYWGQGTQVTVSS", "polyreactivity (PSR sort gate)": "low polyreactivity"}
{"Sequence code": "QVQLVESGGGLVQAGGSLRLSCAASGFIFPEYAMGWYRQAPGKERELVAAINWSGGNTYYADSVKGSFTISRDNAKNTVYLQMNSLKPEDTAVYYCNVDDWVTDDDYWGQGTQVTVSS", "polyreactivity (PSR sort gate)": "low polyreactivity"}
{"Sequence code": "QVQLVESGGGLVQAGGSLRLSCAASGSTFDVYAMGWYRQAPGKERELVAAIRSSGGSTFYADSVKGRFTISRDNAKNIVYLQMISLNPEDTAVYYCAARSFVVSGYNKYYEYGYWGQGTHVTVSS", "polyreactivity (PSR sort gate)": "low polyreactivity"}
{"Sequence code": "QVQLLESGGGLVQAGGSLRLSCAASGSTFKSYAMGWYRQAPGKERELVAAISGRGGSTYYADSVKGRVTISRDNAKNTVYLQMNSLKPEDTAVYYCNALGSQRYDYWGQGTQVTVSS", "polyreactivity (PSR sort gate)": "high polyreactivity"}
{"Sequence code": "QVQLVESGGGLVQAGGSLRLRCAASGSTSWSNPMGWYRQAPGKERELVAAITTGASTYYADSVKGRFTISRDNAKNTVYLQMNSLKPEDTAVYYCAADPWVLWSYYYWGQGTQVTVSS", "polyreactivity (PSR sort gate)": "low polyreactivity"}

====

Test: yeast display, Sf9 membrane polyspecificity reagent, FACS + sequencing; frameworks hold sequencing errors

{"Sequence code": "QVQLVESGGGLVQAGGSLRLSCAASGRTFRWYGMGWYRQAPGKEREFVAAISFRGGTTYYADSVKGRFTISRDNAKNTVYLQMNSLKPEDTAVYYCAARYGYYTSDYKYYYWGQGTQVTVSS", "polyreactivity (PSR sort gate)": "high polyreactivity"}
{"Sequence code": "QVQLVESGGGLVQAGGSPRLSCAASGRTFAEYPMGWYRQAPGKERELVAGISWSGGSTYYADSVKGRFTISRDTAKNTVYLQMNSMKPDDTAVYYCAARGWKRGYYIGHYYYWGQGTQVTVSS", "polyreactivity (PSR sort gate)": "low polyreactivity"}
{"Sequence code": "QVQLVESGGGLVQAGGSLRLSCAASGRTFGFNAMGWYRQAPGKARELVAAISSSSSSTYYADSVKGRFTISRDNAKNTVYLQMNSLKPEDTAVYYCAKQEPYPFGGYYEYDYWGQGTQVTVSS", "polyreactivity (PSR sort gate)": "low polyreactivity"}
{"Sequence code": "QVQLVESGGGLFQAGGSLRLSCAASGRTFRDYVMGWYRKATGKERELVAAISTRGASTYYADSVKGRFTISRDNAKNTVDLQMNSLKPEDTAVYYCAARSTRRGNEYDYWGQGTQVTGSS", "polyreactivity (PSR sort gate)": "high polyreactivity"}
{"Sequence code": "QVQLVESGGGLVQAGGSLRLSCAASGIIFGTYTMGWYRQAPGKERELVAAITYSGGRTYYADSVKGRFTISRDNAKNTVYLQMNSLKPEDTAVYYCAAYRSSWGYSPYDYWGQGTQVTVSS", "polyreactivity (PSR sort gate)": "high polyreactivity"}
{"Sequence code": "QVQLVESGGGLVQAGGSLRLSCAASGSIFTINAMGWYRQAPGKERELVAAISFSGGRTYYADSVKGRFTISRDNAKITVYLQMNSLKPEDTAVYYCAAPFYYYGVRFDYWGQGTQVTVSS", "polyreactivity (PSR sort gate)": "high polyreactivity"}
{"Sequence code": "QVQLVESGGGLVQAGGSLRISCAASGRTLGYNAMGWYRQAPGKERELVAAISWSGGSTYYADSVKGRFTISRDNAKNTVYLQMNSLNPEDTAVYYCAARNNRYPLYNYWGQGTQVTVSS", "polyreactivity (PSR sort gate)": "low polyreactivity"}
{"Sequence code": "QVQLVESGAGLVHAGGSLRLSCAASGRIFNYYAMGWYRQAPGKESELVAGINWSGTRTYYADSVKGRFTISRDNAKITVYLQMNSLKPEDTAVYYCNAGRTWRAFTGDEYWVQGTQVTVSS", "polyreactivity (PSR sort gate)": "high polyreactivity"}
{"Sequence code": "QVQLVESGGGLVQAGGSLRLSCAASGFTFPWNVMGWYRQAPGKEREFVAAISKSAGSTFYADSVKGRFTISRDNAKNTVYLQMNSLKPEDTAVYYCAKPRVPGVHVQEMYYWGQGTQVTVSS", "polyreactivity (PSR sort gate)": "low polyreactivity"}
{"Sequence code": "QVQLVESGGGLVQAGGSLRLSCAASGRISRSNTMGWYRQGPGKERELVAAISRGGGSTYYADSVKGRFTISRDNAKNTVYLQMNSLKPEDTAVDYCAKAFRGHYWRQGTQVTVSS", "polyreactivity (PSR sort gate)": "high polyreactivity"}
{"Sequence code": "QVQLVESGGGLVQAGGSLRLSCAASGSIFPSYSMGWYRQAPGKERELVAVISVSGGRTYYADSVKGRFTISRDNAKNTVYLQMKSLKPEDTAVYYCAKDRPQEYDYWGQGTQVTVSS", "polyreactivity (PSR sort gate)": "low polyreactivity"}
